method: Oral fluid to blood (OF/B) concentration ratio and plasma concentration
experimentalParameters: human, oral, 200 mg
reportedProperty: Kp
# answer = number (no unit)

Give me measured Kp, please, for this compound: CNC(C)C(=O)c1ccc(C)cc1 (stereo not shown)
22.3

* * *

method: Oral fluid to blood (OF/B) concentration ratio and plasma concentration
experimentalParameters: human, po, 200 mg
reportedProperty: Kp
Provide a numeric answer; units are not to be included.

Look up Kp of CNC(C)C(=O)c1ccc(C)cc1 (stereo not shown) and report it.
11.7

* * *

I'd appreciate it if you could supply AUC(0-t) values for the items below.
method: Oral fluid concentrations (Salivette, LC-MS/MS)
Assay type: in vivo, humans
experimentalParameters: both sexes, human, methylone 100–300 mg n=8, MDMA 75–100 mg n=6, mean ± SD, read-out: Oral fluid AUC0–4 h

Report AUC(0-t), nothing else, for this molecule: CNC(C)C(=O)c1ccc2c(c1)OCO2 (centres unmarked)
40600 ng·h/mL

Find the measured AUC(0-t) of CNC(C)Cc1ccc2c(c1)OCO2 (centres unmarked) and report it.
6590 ng·h/mL
